Tested on: synaptosomal uptake of dopamine (DA)
assay summary: Blockade of synaptosomal uptake of dopamine (DA) in vitro, rat corpus striatum
Assay type: biochemical, Sprague-Dawley CD male rats
measurement setup: rat corpus striatum synaptosomes
Counter-ions that a name gives are not always drawn.
What pIC50 was measured for each of the following?
A value of pIC50 is the negative decimal logarithm of a concentration given in moles per litre.

Incoming: Which measured pIC50 belongs to CN[C@@H]1CC[C@@H](c2cccc(C(F)(F)F)c2)c2ccccc21 (relative stereo) , tested on synaptosomal uptake of dopamine (DA)?
Outgoing: 5.59

Incoming: Which measured pIC50 belongs to CN(C)[C@@H]1CC[C@@H](c2ccc(Cl)cc2)c2ccccc21 (relative stereo) , tested on synaptosomal uptake of dopamine (DA)?
Outgoing: 6.42

Incoming: Which measured pIC50 belongs to CN[C@@H]1CC[C@@H](c2ccc(OC)cc2)c2ccccc21 (relative stereo) [Example 13, Hydrochloride] , tested on synaptosomal uptake of dopamine (DA)?
Outgoing: 6.40

Incoming: Which measured pIC50 belongs to CN[C@@H]1CC[C@@H](c2ccc(Cl)cc2)c2ccc(Cl)cc21 (relative stereo) [Example 11, Hydrochloride] , tested on synaptosomal uptake of dopamine (DA)?
Outgoing: 7.35

Incoming: Which measured pIC50 belongs to CN[C@@H]1CC[C@@H](c2cccc(OC)c2)c2ccccc21 (relative stereo) , tested on synaptosomal uptake of dopamine (DA)?
Outgoing: 6.28

Incoming: Which measured pIC50 belongs to CN[C@@H]1CC[C@@H](c2ccc(Cl)cc2)c2ccc(OC)cc21 (relative stereo) [Example 17, Hydrochloride] , tested on synaptosomal uptake of dopamine (DA)?
Outgoing: 7.38

Incoming: Which measured pIC50 belongs to CN(C)[C@@H]1CC[C@@H](c2ccccc2)c2ccccc21 (relative stereo) [II, hydrochloride, reference compound] , tested on synaptosomal uptake of dopamine (DA)?
Outgoing: 6.08

Incoming: Which measured pIC50 belongs to CN[C@@H]1CC[C@@H](c2ccc(Cl)c(C(F)(F)F)c2)c2ccccc21 (relative stereo) , tested on synaptosomal uptake of dopamine (DA)?
Outgoing: 5.14

Incoming: Which measured pIC50 belongs to CN[C@@H]1CC[C@@H](c2ccccc2OC)c2ccccc21 (relative stereo) , tested on synaptosomal uptake of dopamine (DA)?
Outgoing: 5.24

Incoming: Which measured pIC50 belongs to CN[C@@H]1CC[C@@H](c2ccc(F)cc2)c2ccccc21 (relative stereo) [Example 7, Hydrochloride] , tested on synaptosomal uptake of dopamine (DA)?
Outgoing: 6.66

Incoming: Which measured pIC50 belongs to CN[C@@H]1CC[C@@H](c2ccccc2)c2ccccc21 (relative stereo) [I, hydrochloride, reference compound] , tested on synaptosomal uptake of dopamine (DA)?
Outgoing: 6.68

Incoming: Which measured pIC50 belongs to CN(C)[C@@H]1CC[C@@H](c2cccc(C(F)(F)F)c2)c2ccccc21 (relative stereo) , tested on synaptosomal uptake of dopamine (DA)?
Outgoing: 5.21

Incoming: Which measured pIC50 belongs to CN[C@@H]1CC[C@@H](c2ccc(C(F)(F)F)cc2)c2ccccc21 (relative stereo) , tested on synaptosomal uptake of dopamine (DA)?
Outgoing: 5.36

Incoming: Which measured pIC50 belongs to CN(C)[C@@H]1CC[C@@H](c2ccc(Cl)c(Cl)c2)c2ccccc21 (relative stereo) [Example 20a] , tested on synaptosomal uptake of dopamine (DA)?
Outgoing: 6.77

Incoming: Which measured pIC50 belongs to CN(C)[C@@H]1CC[C@@H](c2ccc(C(F)(F)F)cc2)c2ccccc21 (relative stereo) , tested on synaptosomal uptake of dopamine (DA)?
Outgoing: 5.01

Incoming: Which measured pIC50 belongs to CN[C@@H]1CC[C@@H](c2ccc(Br)cc2)c2ccccc21 (relative stereo) [Example 12, Hydrochloride] , tested on synaptosomal uptake of dopamine (DA)?
Outgoing: 7.10

Incoming: Which measured pIC50 belongs to CN[C@@H]1CC[C@@H](c2ccc(Cl)cc2Cl)c2ccccc21 (relative stereo) [Example 16, Hydrochloride] , tested on synaptosomal uptake of dopamine (DA)?
Outgoing: 5.21

meta.source: patent US4556676A
